- EXPERIMENTAL PROTOCOL: LTI-291-001 single ascending dose study: plasma pharmacokinetics and food effect
- Assay type: in vivo, human
- PROTOCOL CONDITIONS: human, plasma, oral, single dose 3-90 mg, fasted, medians across dose groups; read-out: median Tmax
MEASURED ATTRIBUTE: Tmax

[in] Look up Tmax of `CCCCCO[C@H]1CC[C@H](NC(=O)c2cnn3c(C)cc(C)nc23)CC1` and report it.
[out] 1 to 3 h

----------
- EXPERIMENTAL PROTOCOL: BIA 28-6156-107 DDI: effect of multiple-dose carbamazepine on single-dose PK of Compound A
- Assay type: in vivo, human
- PROTOCOL CONDITIONS: both sexes, human, in vivo, oral; 60 mg Compound A coadministered with carbamazepine; read-out: Median Tmax
MEASURED ATTRIBUTE: Tmax (h)
# number only, unit h dropped from output

[in] Look up Tmax of `CCCCCO[C@H]1CC[C@H](NC(=O)c2cnn3c(C)cc(C)nc23)CC1` and report it.
[out] 2
